I'd be grateful if you could share measured t½ for these entries.
# Measurement target: T1, human IL-33 (R&D Systems, #3625-IL-010/CF) (human, UniProt O95760 112-270)
# T1 construct: Commercial recombinant protein; also called hIL-33; interleukin-33
# T1 sequence (looked up): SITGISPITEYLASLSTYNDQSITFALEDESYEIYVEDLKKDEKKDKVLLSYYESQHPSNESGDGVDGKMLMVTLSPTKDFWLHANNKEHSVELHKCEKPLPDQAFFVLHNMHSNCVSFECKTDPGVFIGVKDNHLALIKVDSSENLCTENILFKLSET
# Test: SPR 37C, pH6.0 chase, mAb captured
Please don't drop the unit; write it after the number.

Consider H4H9629P (antibody, human IgG4, V domains shown, Human IgG4 Fc (H4H)) VH: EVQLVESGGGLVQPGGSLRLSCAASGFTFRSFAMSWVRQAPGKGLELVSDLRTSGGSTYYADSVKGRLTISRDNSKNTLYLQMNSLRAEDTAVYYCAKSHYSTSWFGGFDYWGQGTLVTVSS VL: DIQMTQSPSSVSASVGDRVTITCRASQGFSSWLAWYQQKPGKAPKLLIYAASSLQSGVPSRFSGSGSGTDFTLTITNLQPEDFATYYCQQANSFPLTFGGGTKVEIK . Its measured t½ is 2 min

Consider H4H9667P (antibody, human IgG4, V domains shown, Human IgG4 Fc (H4H)) VH: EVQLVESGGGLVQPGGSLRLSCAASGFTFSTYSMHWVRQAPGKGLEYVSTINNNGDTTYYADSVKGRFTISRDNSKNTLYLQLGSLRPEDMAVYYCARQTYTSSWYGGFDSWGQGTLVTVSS VL: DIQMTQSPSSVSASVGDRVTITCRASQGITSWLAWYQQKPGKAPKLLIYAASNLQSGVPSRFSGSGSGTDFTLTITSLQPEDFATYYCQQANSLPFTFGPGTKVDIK . Its measured t½ is 5 min

Consider H4H9671P (antibody, human IgG4, V domains shown, Human IgG4 Fc (H4H)) VH: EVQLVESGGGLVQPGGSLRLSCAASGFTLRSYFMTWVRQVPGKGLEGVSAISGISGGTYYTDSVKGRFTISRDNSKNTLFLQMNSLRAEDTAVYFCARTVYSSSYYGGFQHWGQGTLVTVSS VL: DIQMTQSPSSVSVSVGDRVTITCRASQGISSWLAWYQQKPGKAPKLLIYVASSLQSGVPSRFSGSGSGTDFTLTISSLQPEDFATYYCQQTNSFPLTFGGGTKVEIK . Its measured t½ is 2 min

Consider H4H9670P (antibody, V domains shown, Human IgG4 Fc (H4H)) VH: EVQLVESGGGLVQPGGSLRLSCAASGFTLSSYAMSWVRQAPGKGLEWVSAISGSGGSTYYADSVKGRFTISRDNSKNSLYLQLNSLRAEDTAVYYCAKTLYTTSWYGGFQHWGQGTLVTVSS VL: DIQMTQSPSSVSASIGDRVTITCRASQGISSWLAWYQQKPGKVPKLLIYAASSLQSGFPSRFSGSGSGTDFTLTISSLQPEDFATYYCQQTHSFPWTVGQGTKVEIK . Its measured t½ is 3 min

Consider H4H9666P (antibody, human IgG4, V domains shown, Human IgG4 Fc (H4H)) VH: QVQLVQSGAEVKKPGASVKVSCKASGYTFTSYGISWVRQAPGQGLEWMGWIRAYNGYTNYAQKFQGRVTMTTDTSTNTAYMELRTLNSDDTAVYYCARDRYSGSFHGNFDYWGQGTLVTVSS VL: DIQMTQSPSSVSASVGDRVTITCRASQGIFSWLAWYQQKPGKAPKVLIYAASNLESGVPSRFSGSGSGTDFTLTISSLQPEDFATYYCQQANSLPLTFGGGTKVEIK . Its measured t½ is 2 min

Consider H4H9660P (antibody, human IgG4, V domains shown, Human IgG4 Fc (H4H)) VH: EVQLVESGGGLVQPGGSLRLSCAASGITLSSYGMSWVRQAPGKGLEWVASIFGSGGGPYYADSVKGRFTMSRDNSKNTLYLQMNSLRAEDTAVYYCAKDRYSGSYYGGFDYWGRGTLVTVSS VL: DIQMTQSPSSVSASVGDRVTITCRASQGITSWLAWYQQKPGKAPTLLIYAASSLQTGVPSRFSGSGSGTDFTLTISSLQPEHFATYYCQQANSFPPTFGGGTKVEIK . Its measured t½ is 4 min
